target: LdtMt2 (Mycobacterium tuberculosis, UniProt I6Y9J2); assay: biochemical; type: biochemical; parameters: made in house; host or cells: E. coli; details: pIC50 LdtMt2 (mean ± SD)
Sequence (I6Y9J2 56-408): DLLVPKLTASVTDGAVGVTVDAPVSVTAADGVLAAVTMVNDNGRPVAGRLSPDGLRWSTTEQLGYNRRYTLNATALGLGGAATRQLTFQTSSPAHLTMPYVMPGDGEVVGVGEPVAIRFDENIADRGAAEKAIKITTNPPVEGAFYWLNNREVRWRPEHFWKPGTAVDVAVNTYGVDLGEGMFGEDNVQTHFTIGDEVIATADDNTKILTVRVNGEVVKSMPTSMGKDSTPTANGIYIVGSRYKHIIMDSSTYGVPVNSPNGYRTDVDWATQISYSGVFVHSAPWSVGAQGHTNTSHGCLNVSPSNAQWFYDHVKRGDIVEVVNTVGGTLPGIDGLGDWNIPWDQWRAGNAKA
QUANTITY: IC50
Please answer using a numeric value trailed by its unit.

The examples below pair each entry with its known result.
>>> recorded_measurement("C[C@@H](O)[C@H]1C(=O)N2C(C(=O)O)=C(S[C@@H]3CN[C@H](C(=O)N(C)C)C3)[C@H](C)[C@H]12 [Meropenem, reference compound]")
"10 µM"
>>> recorded_measurement("O=C(NNC(=O)[C@@H]1CC[C@@H]2CN1C(=O)N2OS(=O)(=O)O)[C@@H]1CCCNC1 [Zidebactam, reference compound]")
"100 µM"

Could you now consider this next compound?
Request: Kindly indicate its recorded IC50. Item: Cc1onc(-c2c(F)cccc2Cl)c1C(=O)N[C@@H]1C(=O)N2[C@@H]1SC(C)(C)[C@@H]2C(=O)O [Flucloxacillin, reference compound]
Response: 25.1 µM

====

target: LdtMt2 (Mycobacterium tuberculosis); assay: biochemical; type: biochemical; design: made in house; host or cells: E. coli; settings: Table S5 HTS hits; 30 minute inhibitor pre-incubation; two independent repeats; read-out: pIC50 LdtMt2 (converted)
Kindly state IC50 for each of the entries shown.
Numbers only, in nM.

The examples below pair each entry with its known result.
>>> recorded_measurement("O=C1C=CC(=O)N1c1ccccc1")
70.8
>>> recorded_measurement("CS(=O)(=O)c1ccc(F)c(N2C(=O)C=CC2=O)c1")
87.1
>>> recorded_measurement("O=c1c2cc(Cl)c(Cl)cc2sn1CCO")
10.2
>>> recorded_measurement("N#Cn1c(-c2ccc(F)cc2C(F)(F)F)nc2ccccc21")
29.5

Could you now consider this next molecule?
Request: Kindly indicate its recorded IC50. Item: COc1cccc(NC(=O)/C(Cl)=C(\Cl)S(=O)(=O)Cc2ccccc2Cl)n1
Response: 69.2

====

biological target: BlaC (Mycobacterium tuberculosis, UniProt P9WKD3); construct: made in house; host or cells: E. coli; assay: BlaC fluorogenic inhibition assay with FC5 (dose-response); type: biochemical; settings: pIC50 BlaC (mean ± SD), Table S3 tool compounds; 10 min incubation; 2.5 nM BlaC, 2.5 µM FC5; n=4
Sequence (P9WKD3 35-307): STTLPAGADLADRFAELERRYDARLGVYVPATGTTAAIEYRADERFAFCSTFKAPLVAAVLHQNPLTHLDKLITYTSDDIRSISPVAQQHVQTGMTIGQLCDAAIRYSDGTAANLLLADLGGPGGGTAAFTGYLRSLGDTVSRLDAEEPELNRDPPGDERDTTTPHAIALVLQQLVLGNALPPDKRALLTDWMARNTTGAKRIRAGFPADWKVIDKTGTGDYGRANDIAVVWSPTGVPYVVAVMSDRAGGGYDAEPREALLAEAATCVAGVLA
pIC50: −log10 of the molar value.
QUANTITY: pIC50

Request: Enter recorded pIC50 with BlaC (Mycobacterium tuberculosis, UniProt P9WKD3) for O=C1C=CC(=O)N1 [Maleimide, reference compound] here.
Response: < 4.00

====

target: UniProtKB I6Y9J2; assay: biochemical; type: biochemical; design: made in house; host or cells: E. coli; details: pIC50, 10 min, Table S8; inhibitor pre-incubation time 10 min
QUANTITY: pIC50
Numbers only, as −log10 of the molar value.

Request: Kindly indicate its recorded pIC50. Item: CCOc1ccc(CN2C(=O)C(=O)c3cc(Br)cc(C)c32)cc1OC [Compound 16]
Response: 6.44

====

biological target: LdtMt2 (Mycobacterium tuberculosis); test: biochemical; type: biochemical; set-up: made in house; host or cells: E. coli
QUANTITY: LE (ligand efficiency)
Answers are plain numbers.

>>> recorded_measurement("Cc1ccc(C=CC(=O)Nc2ccc(S(N)(=O)=O)cc2)o1 [Compound 9]")
0.53
>>> recorded_measurement("COc1ccc(CN2C(=O)C(=O)c3cc(Br)cc(C)c32)cc1OC [Compound 17]")
0.47
>>> recorded_measurement("N#Cn1c(N2CCOCC2)nc2ccccc21 [Compound 28]")
0.66

Batch request: LE (ligand efficiency) per item, same order as input.
1. NC(=O)OCC1=C(C(=O)O)N2C(=O)C(NC(=O)C(=CS(=O)(=O)CCc3ccc(O)c(O)c3)c3csc(N)n3)C2SC1 (stereo not shown) [Compound 20]
2. O=C(OCN1C(=O)C=CC1=O)c1ccccc1 [Compound 7]
3. CC(C)(C)OC(=O)Nc1ccc(N2C(=O)C=CC2=O)cc1 [Compound 6]
4. Cc1ccccc1NC(=O)C=CC(N)=O [Compound 14]
5. CC(N)C(=O)NC1CCN(c2ccc(N3CCCC3)cc2C#N)C1 (stereo not shown) [Compound 39]
6. N#Cn1c(N2CCSCC2)nc2ccccc21 [Compound 27]
7. O=C1C(=O)N(Cc2cccc3ccccc23)c2ccc(Br)cc21 [Compound 18]
8. N#Cn1c(-c2ccncc2)nc2ccc(-c3ccco3)cc21 [Compound 33]

Response:
[0.28, 0.66, 0.52, 0.75, 0.47, 0.66, 0.49, 0.51]

Batch request: LE (ligand efficiency) per item, same order as input.
1. N#Cn1c(-c2ccncc2)nc2ccc(C(=O)c3ccccc3)cc21 [Compound 36]
2. Cc1ccc(C=CC(=O)N2CC(=O)Nc3ccccc32)o1 [Compound 10]
3. N#Cn1c(-c2ccncc2)nc2ccc(-c3cccnc3)cc21 [Compound 35]
4. N#Cn1c(-c2ccc(OC3CCOCC3)cc2)nc2ccccc21 [Compound 32]
5. O=C1C=CC(=O)N1c1ccc(Oc2ccccc2)c(Cl)c1 [Compound 5]
6. O=C(NC(Cc1ccccc1)C(=O)CCl)c1cc(Cc2ccccc2)on1 (stereo not shown) [Compound 1]
7. N#Cn1c(-c2cncnc2)nc2ccccc21 [Compound 25]

Response:
[0.45, 0.54, 0.49, 0.47, 0.53, 0.41, 0.66]

Request: Kindly indicate its recorded LE (ligand efficiency). Item: N#Cn1c(-c2ccnnc2)nc2ccccc21 [Compound 24]
Response: 0.66
